Reference source for all entries: PubChem BioAssay (NCI)

- ASSAY_INFO: NCI Yeast Anticancer Drug Screen. Data for the mec2-1 strain (AID 157)
- CONDITIONS: S. cerevisiae mec2-1 strain, at 50.0 µM
- Description: Growth inhibition of yeast strains with defined genetic alterations is measured as a screen for potential anti-cancer activity. Selected strains with alterations in DNA damage repair or cell cycle control were exposed to compounds and growth inhibition was measured relative to vehicle treated controls. The strain used in this assay is mec2-1
This is part of a sample that, as a whole, favours compounds with a hit. Of some 79,000 tested, about 15% had one in any assay. Active and inactive are the calls of the source. Cut-off read from the data, not from the text of the source: active = growth inhibition above about 70%; inactive = the rest. Where a SMILES comes first, the peptide text is derived from it. [ ]: non-standard residue; d: D form. The star is where a group is joined. Nle = CCCC[CH](N)C(=O)O; Cbz = O=C(OCc1ccccc1)*
Choose one outcome from this list and give only that: class 1 = active, class 0 = inactive

- MOLECULE: "CCC(C)(NC(N)=O)c1ccccc1 (stereo unspecified)"
  ASSIGNED_LABEL: "class 0"
- MOLECULE: "O=C(CCCC(=O)Nc1ccc2[nH]c3ccccc3c(=O)c2c1)Nc1ccc2[nH]c3ccccc3c(=O)c2c1"
  ASSIGNED_LABEL: "class 0"
- MOLECULE: "CCCCC(NC(=O)C(Cc1ccccc1)NC(=O)OCc1ccccc1)C(=O)O (stereo not drawn) (Cbz-Phe-[Nle]-OH; configuration not given here)"
  ASSIGNED_LABEL: "class 0"
- MOLECULE: "COC/C=C(\\C)CC/C=C(\\C)CCC=C(C)C"
  ASSIGNED_LABEL: "class 0"
- MOLECULE: "CC1C(OC(=O)CCl)CCC2C1(C)CCC1C2(C)CCC2(C)C3CC(C)(C)CCC3(C)CCC12C (stereo unspecified)"
  ASSIGNED_LABEL: "class 0"

Query: Call for entry `CC(C)CC(=O)NC(Nc1ccc(S(=O)(=O)Nc2ncccn2)cc1)(C(F)(F)F)C(F)(F)F` :
Reply: class 0

Query: Call for entry `CCCNc1nc(C)nc2[nH]cc(C)c12` :
Reply: class 0

Query: Call for entry CC(C)(C)c1cc(C(=O)O)c2c(c1)C(=O)OC2(c1ccccc1)c1ccccc1C(=O)O (stereo unspecified) :
Reply: class 0

Query: Call for entry `COc1ccccc1NC(=O)C(/C=N/C(N)=S)=C(\C)O` :
Reply: class 0

Query: Call for entry O=C(NCCCl)NCC1CCCCO1 (stereo unspecified) :
Reply: class 0

Query: Call for entry `C/C(CC(O)(C(F)(F)F)C(F)(F)F)=N\N` :
Reply: class 0

Query: Call for entry `CCOC(=O)Oc1ccc(C(=O)Oc2ccccc2)cc1OC` :
Reply: class 0

Query: Call for entry `C(=NCc1ccccc1)c1ccccc1-c1ccccc1C=NCc1ccccc1` :
Reply: class 1

Query: Call for entry `O=[N+]([O-])CC1CCCCC1` :
Reply: class 0

Query: Call for entry `Cc1cc(Br)cc(C)c1NC(=O)C(=O)CC(=O)c1sc(-n2nc(-c3ccccc3)cc2-c2ccccc2)nc1C` :
Reply: class 0

Query: Call for entry CCC(C)(CCC(C)C)c1ccncc1 (stereo unspecified) :
Reply: class 0

Query: Call for entry `CC(=O)[C@H]1CC[C@H]2[C@@H]3CC[C@H]4C[C@@H](OC(c5ccccc5)(c5ccccc5)c5ccccc5)CC[C@]4(C)[C@H]3CC[C@]12C` :
Reply: class 0

Query: Call for entry `CCOC(=O)C(=CC(CC)CC)C(=O)OCC` :
Reply: class 0
